- Target Desc: cJun (Homo sapiens)
- Construct: The same 60 amino acid cJun construct, encompassing the entire bZIP domain, was used for all experiments
- Sequence (P05412 252-315 limits assumed): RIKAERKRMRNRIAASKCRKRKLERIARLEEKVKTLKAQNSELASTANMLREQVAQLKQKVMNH
- Procedure Text: CD thermal denaturation of peptide-cJun heterodimers (Tm)
- Assay type: binding
- Condition: CD ellipticity at 222 nm, 1-90 °C; peptide (5 μM)/cJun (5 μM); 20 mM potassium phosphate, 150 mM potassium fluoride, 2 mM TCEP pH 7.4; two-state fit; duplicate experiments, ± one SD
No end group written: not given here.
Is Tm of peptide-cJun heterodimer at least 60 °C? Then Criterion met. If not, Criterion not met.

# count of solved cases: 3
- Substance: "EDVLEEEIEQLEERNYALRKEIEDLQKQLEKLGAP-NH2 (C-terminus assumed) [HW6]"
  Label Value: "Criterion not met"
- Substance: "Ac-LVVEEDVLEEEIEQLEERNYALRKEIEDLQKQLEDL-NH2 [HW12]"
  Label Value: "Criterion met"
- Substance: "Ac-LVVEEDVLEEEIEQLEEKNKALKDEIEDLQKQLEKLY-NH2 [HW10]"
  Label Value: "Criterion met"

Is Tm of peptide-cJun heterodimer for Ac-EAEELVVEEDVLEEEIEQLEERNYALRKEIKDLQDQ-NH2 [HW28] at or above 60 °C?
Criterion not met

Is Tm of peptide-cJun heterodimer for Ac-EAEELVVEEDVLEEEIKQLEDRNYALRKEIEDLQKQ-NH2 [HW24] at or above 60 °C?
Criterion not met

Is Tm of peptide-cJun heterodimer for Ac-EAEELVVEEDVLEEEIEQLEERNYALRKEIEDLQKQLEKL-NH2 [HW4] at or above 60 °C?
Criterion met

Is Tm of peptide-cJun heterodimer for Ac-EAEELVVEEDVLEEEIEQLEEKNKALKDEIEDLQKQY-NH2 [HW26] at or above 60 °C?
Criterion not met

====

- Target Desc: cJun (Homo sapiens)
- Construct: The same 60 amino acid cJun construct, encompassing the entire bZIP domain, was used for all experiments
- Procedure Text: CD thermal denaturation of peptide-cJun heterodimers (Tm)
- Assay type: binding
- Condition: CD ellipticity at 222 nm, 1-90 °C; peptide (5 μM)/cJun (5 μM); 20 mM potassium phosphate, 150 mM potassium fluoride, 2 mM TCEP pH 7.4; two-state fit; duplicate experiments, ± one SD
- Procedure: The precise nature of the interaction between the cJun DBD and the rationally designed acidic domain of HW1 is unknown. HW1 was, therefore, iteratively truncated from the N terminus (HW2–6) to investigate the effect on cJun binding and cJun/TRE DNA antagonism (Table 1). Peptide fraction helicity (fH) was determined by quantifying the circular dichroism (CD) signal at 222 nm of peptide-only samples (Figure S1). […]
With a cut-off of 60 °C, any Tm of peptide-cJun heterodimer strictly below it is called Condition met; any Tm of peptide-cJun heterodimer meeting it or above is called Condition not met.

# count of solved cases: 5
- Substance: "Ac-KEAEDLVVEEDVLEEEIEQLEERNYALRKEIKDLQDQ-NH2 [HW18]"
  Target Desc: "cJun (Homo sapiens)"
  Label Value: "Condition met"
- Substance: "Ac-EAEELVVEEDVLEEEIEQLEERNYALRKEIEDL-NH2 [HW9]"
  Target Desc: "cJun (Homo sapiens)"
  Label Value: "Condition met"
- Substance: "Ac-LEKEAEELVVEEDVLEEEIEQLEERNYALRKEIEDLQKQLEKL-NH2 [HW3]"
  Target Desc: "cJun (Homo sapiens)"
  Label Value: "Condition not met"
- Substance: "Ac-EAEELVVEEDVLEEEIEQLEERNYALRKEIEDLQKQ-NH2 [HW8]"
  Target Desc: "cJun (Homo sapiens)"
  Label Value: "Condition met"
- Substance: "Ac-EAKELVDEEDVLEEEIEQLEERNYALRKEIEDLQKQ-NH2 [HW20]"
  Target Desc: "cJun (Homo sapiens)"
  Label Value: "Condition met"

Bench note: check whether Ac-EAEELVVEEKVLEDEIEQLEERNYALRKEIEDLQKQ-NH2 [HW22] shows Tm of peptide-cJun heterodimer below 60 °C
Condition met
